Target: CAI-1 autoinducer sensor kinase/phosphatase CqsS (Vibrio cholerae serotype O1 (strain ATCC 39315 / El Tor Inaba N16961), UniProt Q9KM66)
Sequence (Q9KM66 whole entry, one chain of several): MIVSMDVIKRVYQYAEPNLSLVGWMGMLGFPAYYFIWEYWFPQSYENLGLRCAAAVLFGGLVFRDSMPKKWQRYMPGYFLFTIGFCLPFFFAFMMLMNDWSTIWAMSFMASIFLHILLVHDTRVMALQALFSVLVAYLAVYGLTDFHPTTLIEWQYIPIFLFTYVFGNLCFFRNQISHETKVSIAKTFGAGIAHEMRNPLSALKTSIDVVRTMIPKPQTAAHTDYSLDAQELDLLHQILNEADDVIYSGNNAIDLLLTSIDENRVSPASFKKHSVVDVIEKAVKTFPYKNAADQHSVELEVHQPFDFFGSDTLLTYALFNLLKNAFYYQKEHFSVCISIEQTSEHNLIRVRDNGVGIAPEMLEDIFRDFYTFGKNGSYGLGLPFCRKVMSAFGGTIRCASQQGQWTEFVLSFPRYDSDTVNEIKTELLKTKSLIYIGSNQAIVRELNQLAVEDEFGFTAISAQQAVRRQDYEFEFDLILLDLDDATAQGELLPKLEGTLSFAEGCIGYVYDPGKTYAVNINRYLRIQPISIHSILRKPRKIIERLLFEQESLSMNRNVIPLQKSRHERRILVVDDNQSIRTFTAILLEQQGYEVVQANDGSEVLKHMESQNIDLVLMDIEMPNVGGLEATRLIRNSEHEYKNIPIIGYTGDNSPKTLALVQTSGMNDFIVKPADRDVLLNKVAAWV
Assay: Agonist activity at CqsS receptor in cqsA-deficient, luxQ-deficient Vibrio cholerae MM920 harboring cosmid pBB1 carrying Vibrio harveyi luxCDABE gene assessed as induction of quorum sensing regulated bioluminescence after 4 hrs by scintillation counting
So I've got a bunch of molecules here, and I need their pEC50 values.
Give bare numbers, as −log10 of the molar value.

Solved cases (3 shown):
>>> test_value("CCCCCCCCCCC(=O)[C@@H](O)CC")
5.68
>>> test_value("CCCCCCCCCC(=O)C(N)CC.Cl (centres undefined)")
6.68
>>> test_value("CCCCCCCCCC(O)C(O)CC (mixture of isomers)")
5.37

Please give pEC50 for each item listed below.
1. CCCCCCCCCC(=O)C(O)C(C)C (racemic)
2. CCCCCCCCC(=O)[C@H](O)CC

**A:**
[5.15, 5.79]
